PROTOCOL_DESCRIPTION: Cytotoxicity against human C8116 cells after 4 days by MTT assay
Format: cell-based
Provide the reported CC50 at 96 h of each item.

Reference set, count: 2
CC1(C)CC(=O)C2=C(O1)[C@]1(C[C@@H]1C(C)(C)O)[C@@H](O)[C@@H](O)C2 [PESTALOFICIOL B]: > 200 µM
CC1(C)CC(=O)C2=C(O1)[C@@]13C[C@@H]1C(C)(C)O[C@H]3[C@@H](O)C2 [PESTALOFICIOL A]: > 200 µM

In: Provide one value: measured CC50 at 96 h of CC1(C)CC(=O)C2=C(O1)[C@@]1(C[C@H]1C(C)(C)O)[C@@H](O)[C@@H](O)C2 [PESTALOFICIOL D]
Out: > 200 µM

Value source: ChEMBL document CHEMBL1150370
